Where these numbers come from: patent EP0541497A1

Assay: Behavioural profile (Irwin test)
Assay type: in vivo, male CDI Mice
Conditions: mouse, in vivo; oral, 90 mg/kg (equimolar to piracetam), monitored for 6 hours; read-out: death rate
RESULT TYPE: mortality at 6 h (%)

QUERY SMILES	RESULT TYPE	UNIT SPEC	RESULT NUMBER
CC(C)N(CCNC(=O)[C@@H]1CCCN1C(=O)OCc1ccccc1)C(C)C	mortality at 6 h	%	100
